Target: T1, CMG2 38-218 (Homo sapiens, UniProt P58335)
T1 chain: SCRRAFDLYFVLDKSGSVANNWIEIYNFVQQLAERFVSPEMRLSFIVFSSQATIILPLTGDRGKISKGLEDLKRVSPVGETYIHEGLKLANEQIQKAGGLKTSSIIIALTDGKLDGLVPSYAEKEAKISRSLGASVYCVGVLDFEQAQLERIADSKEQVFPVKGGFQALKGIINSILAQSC
Test: sandwich ELISA (competition with His6-PA 488-735)
Experimental endpoint: pIC50
Expect pIC50 as a plain number equal to -log10 of the molar concentration.

Param item = CLRPT ; retrieve measured pIC50.
3.81

Measured values drawn from paper PMC5465072 for this set.
